TARGET OF ASSAY: T1, Recombinant human glypican-3 (aa 1-559), His-tagged, R&D Systems (human, UniProt P51654 25-559)
T1 construct: also called huGPC3; Hu GPC3-His
T1 sequence (P51654 other isoform, or with tags, fused parts or gaps): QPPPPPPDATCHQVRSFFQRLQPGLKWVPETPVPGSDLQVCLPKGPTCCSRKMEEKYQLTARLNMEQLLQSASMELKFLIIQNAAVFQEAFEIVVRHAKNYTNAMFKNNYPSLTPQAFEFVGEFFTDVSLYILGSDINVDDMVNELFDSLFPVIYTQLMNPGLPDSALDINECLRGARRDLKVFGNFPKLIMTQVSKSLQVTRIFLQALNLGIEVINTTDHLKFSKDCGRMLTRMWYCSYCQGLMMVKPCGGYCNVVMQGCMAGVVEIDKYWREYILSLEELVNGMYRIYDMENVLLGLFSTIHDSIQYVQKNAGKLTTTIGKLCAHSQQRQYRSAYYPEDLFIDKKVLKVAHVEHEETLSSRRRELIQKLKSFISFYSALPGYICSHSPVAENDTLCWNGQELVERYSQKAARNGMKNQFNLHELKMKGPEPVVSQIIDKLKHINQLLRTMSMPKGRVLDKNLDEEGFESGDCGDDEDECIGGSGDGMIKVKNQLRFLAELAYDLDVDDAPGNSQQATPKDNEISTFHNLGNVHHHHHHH
MEASUREMENT NOTES: SPR, Biacore T100, GPC3-His immobilised, 1:1 fit
Please go through the items and note down their koff.
Answer with the number, then the unit.

Below: 3 binders and their reported koff.
ADX_6077_F02 DG→AG mutant, alkylated (designed binder, C-terminal cysteine alkylated, also called P1-055669) GVSDVPRDLEVVAATPTSLLISWSDDYHAHRYYRITYGETGGNSPVQEFTVPGEHVTATISGLKPGVDYTITVYAVTYAGEKAATDWSISINYRTPC; 0.00243 s⁻¹
ADX_6077_F02 DG→DV mutant, alkylated (designed binder, C-terminal cysteine alkylated, also called P1-055672) GVSDVPRDLEVVAATPTSLLISWSDDYHAHRYYRITYGETGGNSPVQEFTVPGEHVTATISGLKPGVDYTITVYAVTYDVEKAATDWSISINYRTPC; 0.00309 s⁻¹
ADX_6077_F02 DG→EG mutant, alkylated (designed binder, C-terminal cysteine alkylated, also called P1-055673) GVSDVPRDLEVVAATPTSLLISWSDDYHAHRYYRITYGETGGNSPVQEFTVPGEHVTATISGLKPGVDYTITVYAVTYEGEKAATDWSISINYRTPC; 0.00229 s⁻¹

Shift focus to the following entry.
Record ADX_6077_F02 DG→DL mutant, alkylated (designed binder, C-terminal cysteine alkylated, also called P1-055671) GVSDVPRDLEVVAATPTSLLISWSDDYHAHRYYRITYGETGGNSPVQEFTVPGEHVTATISGLKPGVDYTITVYAVTYDLEKAATDWSISINYRTPC . Reported koff: 0.00159 s⁻¹
